Molecular target: Torsin-1A (Homo sapiens)
Test: torsin A mutant lysate binding on microarrays – cell lysate, small-molecule microarray, COS7 lysate, 635/667 nm fluorescence, primary screen (AID 1150);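 note: score pools 667 nm emission and signal to noise measuring lysate protein binding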
Conditions: COS7 hTOR1A mutant lysate, 635 nm fluorescence, higher = more signal
Use rule met when the recorded composite z-score is no lower than 0.9; use rule not met when it is lower.

# COMPOUND, CATEGORY
data = [
    ("CC(C)C[C@@H]1NC(=O)[C@@H]2C[C@H](C(=O)NCCCCN(C)C)[C@H](c3ccc(O)cc3)N2C1=O", "rule not met"),
    ("O=C1OCCC=C[C@H]2OC34C=CCN(c5ccc6ccccc6c5)C(=O)[C@H]3N(CCCCCCO)C(=O)[C@@H]4C12 (stereo not given in full)", "rule met"),
    ("COCCn1c(C(=O)N2CCCC2)cc2c1C[C@H]1CN(C(=O)c3ccccc3)[C@@](Cc3ccc(OC)cc3)(C(=O)OC)[C@@H]21", "rule met"),
    ("[N-]=[N+]=Nc1ccccc1C[C@]1(C(=O)N2CCCCC2)N=C(c2ccc(OCCCO)cc2)O[C@H]1c1ccccc1N=[N+]=[N-]", "rule met"),
    ("CC(C)C(O)C1C=CC2C(=O)N(C)C(=O)C2N1N1CCCCC1 (stereo not given)", "rule met"),
    ("O=C1[C@H]2C=C(Br)[C@H](C[C@@H]2OCCOCCO)[C@@]12CO2", "rule not met"),
    ("CCCCN1CC=CC23O[C@@H]4/C=C\\CCCOC(=O)C4[C@H]2C(=O)N(C(C)CO)[C@@H]3C1=O (stereo not given in full)", "rule not met"),
    ("C=C(/C(=C/C[C@@H](OC(=O)c1ccncc1)c1ccc(CO)o1)c1cc(C(=O)OC)ccc1OC)C(C)C", "rule met"),
    ("COC(=O)[C@@]1(Cc2ccc(F)cc2)[C@H]2c3cc(C(=O)N4CCCC4)n(Cc4ccc(Cl)c(C(F)(F)F)c4)c3C[C@H]2CN1C(=O)c1ccccc1", "rule not met"),
    ("COCCOC(=O)N1C(=O)[C@@]2(c3cc(C#Cc4ccc(OC)cc4)ccc31)[C@H](c1ccc(O)cc1)N1[C@H](c3ccccc3)[C@H](c3ccccc3)OC(=O)[C@H]1[C@@H]2C(=O)N1CCN(c2ncccn2)CC1", "rule not met"),
    ("C=C(CCCC)C(=O)CC[C@@H](OC(=O)c1ccccc1-c1ccccc1C(=O)O)c1ccc(CO)o1", "rule not met"),
    ("CCCC[C@@H]1C[C@H]1[C@@H](NC(=O)c1ccccc1)c1ccc(-c2ccccc2)cc1", "rule not met"),
    ("O=C1O[C@H](c2ccccc2)[C@H](c2ccccc2)N2[C@H]1[C@@H](C(=O)Nc1nc3ccccc3s1)[C@]1(C(=O)Nc3ccc(C#CC4=CCCCC4)cc31)[C@H]2c1ccc(OCCO)cc1", "rule not met"),
    ("CN1C(=O)C2C(C1=O)C1C=C(c3ccc(CO)cc3)C2C(C2CC2)N1Cc1sc2ccccc2c1Cl (stereo not given)", "rule met"),
]

---

Assay: plasmodial surface anion channel blockers, osmotic lysis – cell-based, P. falciparum Indochina, OD700, 2 h, primary screen (AID 1155);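 note: lysis reports solute entry through the parasite surface anion channel PSAC; channel blockers reduce lysis of infected cells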
Details: P. falciparum Indochina infected erythrocytes, called active from +8 up or from −8 down
Calls of active or inactive are those of the source.
Possible outcomes: true (1) for active, false (0) for inactive

# MOLECULE, CATEGORY
records = [
    ("COC(=O)[C@@]1(Cc2ccccc2)[C@H]2c3cc(C(=O)N(C)C)n(Cc4cc(F)c(F)c(F)c4)c3C[C@H]2CN1C(=O)c1ccccc1", "false (0)"),
    ("CCCNC(=O)[C@@]1(C)c2ccccc2C(=O)N(Cc2cc(C(F)(F)F)cc(C(F)(F)F)c2)[C@H]1c1ccc(CO)cc1", "false (0)"),
    ("CCCC[C@@H]1C[C@H]1[C@@H](NC(=O)c1ccco1)c1ccccc1", "false (0)"),
    ("Cc1ccc(C(C)CC(O)C2C=CC3C(=O)NC(=O)C3N2Nc2ccccn2)o1 (stereo unspecified)", "false (0)"),
    ("CC(=O)n1cc(C(O)C2C=CC3C(=O)N(c4ccccc4)C(=O)C3N2Nc2ccc(C#N)cc2)c2ccccc21 (stereo unspecified)", "false (0)"),
    ("NC(=O)[C@]1(Cc2ccccc2)N=C(c2ccc(OCCCO)cc2)O[C@@H]1c1ccccc1", "true (1)"),
    ("O=C1C2C=CC(C(O)c3ccc(B(O)O)cc3)N(Nc3ccc([N+](=O)[O-])cc3)C2C(=O)N1c1ccccc1 (stereo unspecified)", "false (0)"),
    ("C=C(C(=O)CC[C@@H](OC(C)=O)c1ccc(OCCO)cc1)C(C)C", "false (0)"),
    ("C=CCN1C(=O)[C@@]2(O[C@@H](CCO)[C@H]([Si](C)(C)c3ccc(OC)cc3)[C@H]2C)c2cc(NC(C)=O)ccc21", "true (1)"),
    ("CN1C(=O)C2C(C1=O)C1C=C(c3ccc(CO)cc3)C2C(C2CC2)N1Cc1sc2ccccc2c1Cl (stereo unspecified)", "false (0)"),
    ("O=C(NCC(O)CO)[C@@]1(Cc2ccccc2)COC(c2ccc(OCCCO)cc2)=N1 (stereo partly specified)", "false (0)"),
    ("[N-]=[N+]=NCc1ccccc1C[C@]1(C(=O)NCc2ccccc2)COC(c2ccc(OCCCO)cc2)=N1", "true (1)"),
    ("CN1C(=O)C2C=CC(C(O)C=Cc3ccc([N+](=O)[O-])cc3)N(N3CCCCC3)C2C1=O (stereo unspecified)", "false (0)"),
    ("CC(C)(C)OC(=O)CC[C@@]1(C(=O)NCC(O)CO)N=C(c2ccc(OCCCO)cc2)O[C@@H]1c1ccccc1 (stereo partly specified)", "false (0)"),
    ("COc1ccc([Si](C)(C)[C@@H]2[C@@H](CC(=O)N3Cc4ccccc4C[C@H]3CO)O[C@]3(C(=O)N(Cc4cccc(N5C(=O)COc6ccccc65)c4)c4ccccc43)[C@H]2C)cc1", "false (0)"),
    ("[N-]=[N+]=NCc1ccccc1[C@@H]1OC(c2ccc(OCCCO)cc2)=N[C@]1(Cc1ccccc1N=[N+]=[N-])C(N)=O", "false (0)"),
]
